// data source = patent US20060084596A1

target: platelet derived growth factor PDGF-BB (UniProt P01127 82-190); assay: cell-based or functional assay
Sequence (P01127 82-190 limits assumed): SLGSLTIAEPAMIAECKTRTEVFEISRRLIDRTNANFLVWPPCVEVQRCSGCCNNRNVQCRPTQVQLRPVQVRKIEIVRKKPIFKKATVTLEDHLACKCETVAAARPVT
Positions of bridges follow the written chain, without caps; N, C: chain ends. Non-standard residues stand in square brackets, D forms with d.
Below, each of the binders is paired with its reported IC50, p42/Erk2 value.
PROPERTY: IC50, p42/Erk2

INSERT INTO measurements (binder, property, reported) VALUES
  ('PDGD (designed binder, linker N-C via 3‑aminomethyl‑5‑aminobenzamide; also: four loops on But-Calix scaffold) [GFB-119]', 'IC50, p42/Erk2', '32 µM'),
  ('[dA]DGD (designed binder, linker N-C via 3‑aminomethyl‑5‑aminobenzamide; also: four loops on But-Calix calix[4]arene scaffold) [GFB-108]', 'IC50, p42/Erk2', '57 µM'),
  ('GDGY (designed binder, linker N-C via 3‑aminomethyl‑5‑aminobenzamide; also: loops on DPM-2 scaffold) [GFB-128]', 'IC50, p42/Erk2', '> 50 µM'),
  ('GDDD (designed binder, linker N-C via 3‑aminomethyl‑5‑aminobenzamide; also: four loops on But-Calix calix[4]arene scaffold) [GFB-106]', 'IC50, p42/Erk2', '33 µM'),
  ('GDAD (designed binder, linker N-C via 3‑aminomethyl‑5‑aminobenzamide; also: four loops on But-Calix calix[4]arene scaffold) [GFB-110]', 'IC50, p42/Erk2', '7 µM'),
  ('ADGD (designed binder, linker N-C via 3‑aminomethyl‑5‑aminobenzamide; also: four loops on But-Calix calix[4]arene scaffold) [GFB-112]', 'IC50, p42/Erk2', '26 µM'),
  ('GKGF (designed binder, linker N-C via 3‑aminomethyl‑5‑aminobenzamide; also: four loops on But-Calix scaffold) [GFB-115]', 'IC50, p42/Erk2', '> 50 µM'),
  ('GFGD (designed binder, linker N-C via 3‑aminomethyl‑5‑aminobenzamide; also: four loops on O4-Calix calix[4]arene scaffold) [GFB-101]', 'IC50, p42/Erk2', '> 500 µM'),
  ('GDDY (designed binder, linker N-C via 3‑aminomethyl‑5‑aminobenzamide; also: four loops on But-Calix calix[4]arene scaffold) [GFB-122]', 'IC50, p42/Erk2', '19 µM');
